Biological target: E. coli β-glucuronidase (GUS) (Escherichia coli, UniProt P05804)
Sequence (P05804 whole entry): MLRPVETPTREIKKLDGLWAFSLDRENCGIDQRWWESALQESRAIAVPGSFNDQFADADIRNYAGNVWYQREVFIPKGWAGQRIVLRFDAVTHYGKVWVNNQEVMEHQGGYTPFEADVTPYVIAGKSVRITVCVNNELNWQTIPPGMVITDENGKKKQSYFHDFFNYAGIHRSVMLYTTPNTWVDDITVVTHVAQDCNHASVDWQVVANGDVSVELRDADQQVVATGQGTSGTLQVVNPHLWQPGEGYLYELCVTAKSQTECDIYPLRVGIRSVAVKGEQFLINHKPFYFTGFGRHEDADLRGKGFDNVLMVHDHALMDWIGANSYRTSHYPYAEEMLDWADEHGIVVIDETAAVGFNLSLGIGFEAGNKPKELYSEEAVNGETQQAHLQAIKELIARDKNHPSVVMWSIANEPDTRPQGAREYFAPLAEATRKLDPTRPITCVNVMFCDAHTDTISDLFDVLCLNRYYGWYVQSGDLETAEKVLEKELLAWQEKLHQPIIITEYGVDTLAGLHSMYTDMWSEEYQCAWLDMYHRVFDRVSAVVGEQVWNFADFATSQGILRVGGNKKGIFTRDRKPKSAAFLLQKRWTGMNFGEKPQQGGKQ
pKi: −log10 of the molar value.
RECORDED ENDPOINT: pKi

C=CCc1ccc(O)c(-c2cc(CC=C)ccc2O)c1 : 4.78

[I] C[C@]12CC[C@@H]3c4ccc(O)cc4CC[C@H]3[C@@H]1CC[C@@H]2O [E2, Estradiol]
[II] CN1CCN(CCCN2c3ccccc3Sc3ccc(C(F)(F)F)cc32)CC1
Data request: Look at I and II . Which one has the lower recorded pKi number? Identify your selection by its label.
Data returned: II
